I'd be grateful if you could share measured Ki for these entries.
target or test system: 5-hydroxytryptamine receptor 2A (Homo sapiens, UniProt P28223)
Sequence (P28223 whole entry): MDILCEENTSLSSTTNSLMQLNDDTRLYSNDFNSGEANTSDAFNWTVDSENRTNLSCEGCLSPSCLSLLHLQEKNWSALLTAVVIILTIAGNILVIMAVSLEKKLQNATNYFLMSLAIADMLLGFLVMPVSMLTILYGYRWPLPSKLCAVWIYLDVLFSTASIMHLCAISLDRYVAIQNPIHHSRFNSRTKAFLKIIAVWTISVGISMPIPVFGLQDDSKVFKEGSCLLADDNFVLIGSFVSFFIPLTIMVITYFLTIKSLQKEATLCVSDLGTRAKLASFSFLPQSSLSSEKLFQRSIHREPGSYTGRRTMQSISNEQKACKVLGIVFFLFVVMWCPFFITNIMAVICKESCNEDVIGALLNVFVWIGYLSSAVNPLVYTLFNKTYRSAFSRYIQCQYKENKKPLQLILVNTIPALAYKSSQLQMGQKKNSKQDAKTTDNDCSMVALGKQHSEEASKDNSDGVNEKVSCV
Answer format: numeric, nM implied, no suffix.

Need Ki, item `CCCCn1cc(CCN(C)C)c2c(OP(=O)(O)O)cccc21`
3000

Now the molecule `CN(C)Cc1c[nH]c2cccc(O)c12`
923

Further, for `CN(C)CCc1cn(C)c2cccc(O)c12` ?
900

Continue with `CN(C)Cc1cn(C)c2cccc(O)c12`
498

And for `Cc1[nH]c2cccc(O)c2c1CCN(C)C` ?
122

And `CCCCn1cc(CCN(C)C)c2c(O)cccc21` ?
310

Query `Oc1cccc2[nH]cc(CCN3CCCC3)c12` next
429

Quick one: `CN(C)CCc1c[nH]c2cccc(F)c12`
335

Next entry: `CN1CCN(CCc2c[nH]c3cccc(O)c23)CC1`
9750

And CC(Cc1c[nH]c2cccc(O)c12)N(C)C (stereo not drawn) ?
982

What do you have for `CN(C)CCc1c[nH]c2cc(O)ccc12` ?
7600

What about this molecule? `CN(C)CCCc1c[nH]c2cccc(O)c12`
588

----------
I'd be grateful if you could share measured Ki for these entries.
target or test system: 5-hydroxytryptamine receptor 2C (Homo sapiens)
Sequence (P28335 whole entry, canonical isoform): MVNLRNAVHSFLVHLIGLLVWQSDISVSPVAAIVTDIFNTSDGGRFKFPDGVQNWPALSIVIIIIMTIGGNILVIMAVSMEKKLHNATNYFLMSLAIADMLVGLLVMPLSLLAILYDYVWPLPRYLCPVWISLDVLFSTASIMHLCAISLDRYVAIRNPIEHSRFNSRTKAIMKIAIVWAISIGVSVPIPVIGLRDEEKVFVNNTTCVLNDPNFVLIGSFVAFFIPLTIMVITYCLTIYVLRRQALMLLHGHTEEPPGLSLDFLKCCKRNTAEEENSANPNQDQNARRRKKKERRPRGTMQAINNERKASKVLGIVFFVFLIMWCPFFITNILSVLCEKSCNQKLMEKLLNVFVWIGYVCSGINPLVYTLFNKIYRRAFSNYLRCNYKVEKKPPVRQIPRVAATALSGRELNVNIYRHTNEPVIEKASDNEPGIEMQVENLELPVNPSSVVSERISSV
method: Inhibition constant against human 5-hydroxytryptamine 2C receptor [VGI isoforms] using [3H]mesulergine as radioligand with the compound (10 uM) dissolved in DMSO
Provide the reading as a plain figure in nM.

Write down the reported Ki of `CCCCn1cc(CCN(C)C)c2c(O)cccc21` , test system: 5-hydroxytryptamine receptor 2C (Homo sapiens).
14

One more molecule: `CN(C)CCn1ccc2c(O)cccc21`
4200

Same again, this time with `CN(C)Cc1c[nH]c2cccc(O)c12`
12.6
